target: RAS guanyl-releasing protein 1 (Homo sapiens, UniProt O95267); experiment: Activation of GFP-tagged RasGRP1 (unknown origin) expressed in human LNCAP cells after 30 mins by immunoblot method; type: cell-based
Sequence (O95267 whole entry): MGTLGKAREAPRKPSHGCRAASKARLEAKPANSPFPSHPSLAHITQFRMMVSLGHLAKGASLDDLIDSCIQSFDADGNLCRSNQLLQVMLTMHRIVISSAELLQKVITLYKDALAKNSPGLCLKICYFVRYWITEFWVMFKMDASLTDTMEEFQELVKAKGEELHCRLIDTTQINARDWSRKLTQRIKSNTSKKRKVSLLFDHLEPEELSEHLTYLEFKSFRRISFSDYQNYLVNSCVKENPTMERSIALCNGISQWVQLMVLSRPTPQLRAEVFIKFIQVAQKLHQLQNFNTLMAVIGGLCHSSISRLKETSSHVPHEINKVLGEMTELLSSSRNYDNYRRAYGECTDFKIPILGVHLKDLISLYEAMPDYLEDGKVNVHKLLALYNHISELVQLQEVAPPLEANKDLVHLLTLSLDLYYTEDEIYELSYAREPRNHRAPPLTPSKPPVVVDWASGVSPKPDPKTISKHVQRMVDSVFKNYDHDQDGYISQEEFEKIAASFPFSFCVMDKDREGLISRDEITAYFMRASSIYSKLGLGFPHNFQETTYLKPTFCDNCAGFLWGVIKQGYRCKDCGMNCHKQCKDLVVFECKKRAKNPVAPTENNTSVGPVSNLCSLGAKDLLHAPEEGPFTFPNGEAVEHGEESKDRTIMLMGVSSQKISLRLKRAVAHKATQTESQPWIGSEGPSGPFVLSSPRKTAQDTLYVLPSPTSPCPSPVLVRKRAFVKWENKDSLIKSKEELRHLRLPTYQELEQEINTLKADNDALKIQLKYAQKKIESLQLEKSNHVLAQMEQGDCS
readout: pEC50
The quantity pEC50 is defined as the negative base-10 logarithm of the molar concentration.

INPUT: Please report pEC50 for the following compound: Cn1cc(/C=C2\CC(CO)(COC(=O)C(C)(C)C)OC2=O)c2ccccc21 (stereo unspecified)
OUTPUT: 6.01

* * *

target: Protein kinase C epsilon type (Homo sapiens); assay: Displacement of [3H]PDBu from full length recombinant human PKCepsilon expressed in baculovirus expression system after 5 mins by scintillation counting
Sequence (Q02156 whole entry): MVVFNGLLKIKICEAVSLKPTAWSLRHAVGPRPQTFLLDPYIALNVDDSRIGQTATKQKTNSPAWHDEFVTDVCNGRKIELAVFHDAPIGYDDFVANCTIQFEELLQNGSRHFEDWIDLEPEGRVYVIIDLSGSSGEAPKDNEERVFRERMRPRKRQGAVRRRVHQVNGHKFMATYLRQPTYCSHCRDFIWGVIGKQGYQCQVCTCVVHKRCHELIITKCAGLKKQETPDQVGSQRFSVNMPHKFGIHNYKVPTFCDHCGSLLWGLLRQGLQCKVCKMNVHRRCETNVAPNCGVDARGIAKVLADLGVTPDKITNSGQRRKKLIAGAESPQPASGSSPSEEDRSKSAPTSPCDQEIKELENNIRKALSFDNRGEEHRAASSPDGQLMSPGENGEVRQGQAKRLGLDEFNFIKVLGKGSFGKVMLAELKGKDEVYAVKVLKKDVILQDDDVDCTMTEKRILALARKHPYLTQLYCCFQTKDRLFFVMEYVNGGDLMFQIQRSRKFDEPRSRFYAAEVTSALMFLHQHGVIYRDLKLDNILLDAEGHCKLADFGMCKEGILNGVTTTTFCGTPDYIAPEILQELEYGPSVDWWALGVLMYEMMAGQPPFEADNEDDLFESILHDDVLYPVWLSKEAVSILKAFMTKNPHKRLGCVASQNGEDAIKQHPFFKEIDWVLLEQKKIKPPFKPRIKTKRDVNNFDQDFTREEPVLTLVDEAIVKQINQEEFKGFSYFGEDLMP
readout: Ki

Examples with answers:
CN(C)c1ccc(/C=C2\CC(CO)(COC(=O)c3ccc(N(C)C)cc3)OC2=O)cc1 (stereo not given) :: 39.4 nM
COc1ccc(/C=C2\CC(CO)(COC(=O)c3ccc(OC)cc3)OC2=O)cc1 (stereo not given) :: 13.4 nM
Cn1cc(/C=C2\CC(CO)(COC(=O)c3ccc(Cl)cc3)OC2=O)c2ccccc21 (stereo not given) :: 208 nM
Cn1cc(/C=C2\CC(CO)(COC(=O)C3CCC(C(C)(C)C)CC3)OC2=O)c2ccccc21 (stereo not given) :: 42 nM
Cn1cc(/C=C2\CC(CO)(COC(=O)/C=C/c3ccccn3)OC2=O)c2ccccc21 (stereo not given) :: 3410 nM

INPUT: Provide Protein kinase C epsilon type (Homo sapiens) Ki reading for O=C1OC(CO)(COC(=O)c2ccc(Cl)cc2)C/C1=C\c1ccc(Cl)cc1 (stereo not given) .
OUTPUT: 6.51 nM

INPUT: Report measured Ki on Protein kinase C epsilon type (Homo sapiens); entry: COc1ccc(C(=O)OCC2(CO)C/C(=C\c3ccc(Cl)cc3)C(=O)O2)cc1 (stereo not given)
OUTPUT: 7.1 nM

INPUT: Quote Protein kinase C epsilon type (Homo sapiens) Ki for entry CCCC(CCC)C(=O)OCC1(CO)C/C(=C\c2cn(C)c3ccccc23)C(=O)O1 (stereo not given) .
OUTPUT: 42.8 nM

INPUT: Retrieve Ki on Protein kinase C epsilon type (Homo sapiens); query Cn1nc(/C=C2\CC(CO)(COC(=O)C(C)(C)C)OC2=O)c2ccccc21 (stereo not given)
OUTPUT: 131 nM

INPUT: Look up Protein kinase C epsilon type (Homo sapiens) data: Ki of COc1ccc(/C=C2\CC(CO)(COC(=O)C(C)(C)C)OC2=O)cc1 (stereo not given) , then report it.
OUTPUT: 10.1 nM

INPUT: // output Ki; input CC(C)(C)C(=O)OCC1(CO)C/C(=C\c2ccccn2)C(=O)O1 (stereo not given) ; system Protein kinase C epsilon type (Homo sapiens)
OUTPUT: 1120 nM

INPUT: State the measured Ki (Protein kinase C epsilon type (Homo sapiens)) of CC(C)(C)C(=O)OCC1(CO)C/C(=C\c2csc3ccccc23)C(=O)O1 (stereo not given)
OUTPUT: 8.17 nM
